Values from patent US20240425524A1

Target: RIPK1 (Homo sapiens (Human))
Assay: RIPK1-ADP-Glo Enzymatic Assay
Details: recombinant GST-RIPK1 kinase domain (residues 1-327), 25 nM, ten-point titration, 30 minutes pre-incubation
pEC50: −log10 of the molar value.
readout: pEC50

Guide cases for pEC50, answers given:
[[record]]
molecule = "N#Cc1nccc(N2CCC3(CC2)CN2CC[C@@H](c4cc(F)cc(F)c4)N2C3=O)n1"
numeric_result = 7.14

[[record]]
molecule = "O=C1N2[C@H](c3cc(F)cc(F)c3)CCN2CC12CCN(c1noc3ccccc13)CC2 [Example 2.6]"
numeric_result = 6.84

[[record]]
molecule = "O=C1N2[C@H](c3cc(F)cc(F)c3)CCN2CC12CCN(c1nccn3nccc13)CC2"
numeric_result = 7.47

[[record]]
molecule = "O=C1N2[C@H](c3cc(F)cc(F)c3)CCN2CC12CCN(c1cc(-n3ccnc3)ccn1)CC2"
numeric_result = 7.30

[[record]]
molecule = "Cc1nccc(N2CCC3(CC2)CN2CC[C@@H](c4cc(F)cc(F)c4)N2C3=O)n1"
numeric_result = 6.75

[[record]]
molecule = "O=C(c1cc(F)cc(Cl)c1)N1CCC2(CC1)CN1CC[C@@H](c3cc(F)cc(F)c3)N1C2=O"
numeric_result = 7.74


A: O=C1N2[C@H](c3cc(F)cc(F)c3)CCN2CC12CCN(c1cc(Br)cc(F)n1)CC2
B: Cc1nc(N2CCC3(CC2)CN2CC[C@@H](c4cc(F)cc(F)c4)N2C3=O)ccc1F
[in] Between A and B , which one shows the larger pEC50 value? Your answer should be the label attached to the chosen record.
[out] A
(A: 7.77, B: 7.37)

I: O=C1N2[C@H](c3cc(F)cc(F)c3)CCN2CC12CCN(c1cncc(-n3cccn3)n1)CC2
II: O=C1N2[C@H](c3cc(F)cc(F)c3)CCN2CC12CCN(c1ccc(OC(F)F)cn1)CC2
III: O=C1N2[C@H](c3cc(F)cc(F)c3)CCN2CC12CCN(c1ncc(Br)cn1)CC2
IV: N#Cc1ccc(N2CCC3(CC2)CN2CC[C@@H](c4cc(F)cc(F)c4)N2C3=O)nn1
V: CCc1nccc(N2CCC3(CC2)CN2CC[C@@H](c4cc(F)cc(F)c4)N2C3=O)n1 [Example 1.72]
[in] # ascending order, key=pEC50 Please write the labels in the order that was asked for.
[out] IV, V, I, II, III

###

Target: RIPK1 (Homo sapiens (Human), UniProt Q13546)
Sequence (Q13546 1-327): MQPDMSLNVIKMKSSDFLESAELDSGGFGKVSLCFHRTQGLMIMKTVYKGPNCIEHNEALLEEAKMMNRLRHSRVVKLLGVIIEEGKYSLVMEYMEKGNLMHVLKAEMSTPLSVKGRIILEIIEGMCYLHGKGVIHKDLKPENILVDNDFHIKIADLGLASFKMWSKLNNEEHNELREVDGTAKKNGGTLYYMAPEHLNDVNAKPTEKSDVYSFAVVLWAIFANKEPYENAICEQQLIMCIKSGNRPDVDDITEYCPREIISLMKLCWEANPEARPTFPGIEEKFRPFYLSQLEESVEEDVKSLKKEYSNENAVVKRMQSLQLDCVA
Assay: RIPK1-ADP-Glo Enzymatic Assay
Conditions: recombinant GST-RIPK1 kinase domain (residues 1-327), 25 nM, ten-point titration, 30 minutes pre-incubation
pEC50: −log10 of the molar value.
readout: pEC50

Guide cases for pEC50, answers given:
[[record]]
molecule = "CSc1ncc(C)c(N2CCC3(CC2)CN2CC[C@@H](c4cc(F)cc(F)c4)N2C3=O)n1 [Example 1.66]"
numeric_result = 6.17

[[record]]
molecule = "NC(=O)c1ccnc(N2CCC3(CC2)CN2CC[C@@H](c4cc(F)cc(F)c4)N2C3=O)n1 [Example 1.24]"
numeric_result = 6.87

[[record]]
molecule = "O=C(c1cccc(F)c1)N1CCC2(CC1)CN1CC[C@@H](c3cc(F)cc(F)c3)N1C2=O [Example 4.25]"
numeric_result = 7.46

[[record]]
molecule = "O=C1N2[C@H](c3cc(F)cc(F)c3)CCN2CC12CCN(S(=O)(=O)c1ccccc1)CC2 [Example 5.3]"
numeric_result = 6.08

[[record]]
molecule = "O=C1N2[C@H](c3cc(F)cc(F)c3)CCN2CC12CCN(c1ccnc3ccccc13)CC2 [Example 2.7]"
numeric_result = 7.62

[[record]]
molecule = "O=C1N2[C@H](c3cc(F)cc(F)c3)CCN2CC12CCN(c1cccc3ccnn13)CC2 [Example 8.2]"
numeric_result = 7.47


I: O=C1N2[C@H](c3cc(F)cc(F)c3)CCN2CC12CCN(c1cnnc(Cl)c1)CC2 [Example 1.96]
II: N#Cc1ccc(N2CCC3(CC2)CN2CC[C@@H](c4cc(F)cc(F)c4)N2C3=O)nc1 [Example 1.50]
[in] Between I and II , which one shows the larger pEC50 value? Your answer should be the label attached to the chosen record.
[out] II
(II: 7.19, I: 6.24)
